These entries and their values trace back to ChEMBL document CHEMBL2440080.

Test system: NCI-H460
assay: Cytotoxicity against human NCI-H460 cells after 48 hrs by sulforhodamine B assay
Format: functional
assay context: NCI-H460, 48 h
In plain terms, low GI50, meaning strictly below 300 nM, gives met, and everything else gives not met.

Problem: Could you please tell me whether GI50 recorded for COc1ccc(C(=O)N/N=C/c2ccc(O)cc2O)cc1Nc1ccnc(C(F)(F)F)c1 is less than 300 nM?
Solution: not met

Problem: Could you please tell me whether GI50 recorded for CCN(CC)c1ccc(/C=N/NC(=O)c2cccc(Nc3ccnc(C(F)(F)F)c3)c2)c(O)c1 is less than 300 nM?
Solution: met

Problem: Could you please tell me whether GI50 recorded for CCOc1cccc(/C=N/NC(=O)c2ccc(Nc3ccnc(C(F)(F)F)c3)cc2)c1O is less than 300 nM?
Solution: not met

Problem: Could you please tell me whether GI50 recorded for O=C(Cc1ccc(Nc2ccnc(C(F)(F)F)c2)cc1)N/N=C/c1ccccc1O is less than 300 nM?
Solution: not met

Problem: Could you please tell me whether GI50 recorded for COc1cccc(/C=N/NC(=O)c2ccccc2Nc2ccnc(C(F)(F)F)c2)c1O is less than 300 nM?
Solution: met

Problem: Could you please tell me whether GI50 recorded for O=C(N/N=C/c1ccc(O)cc1O)c1cccc(Nc2ccnc(C(F)(F)F)c2)c1 is less than 300 nM?
Solution: not met

Problem: Could you please tell me whether GI50 recorded for CCOc1cccc(/C=N/NC(=O)Cc2ccc(Nc3ccnc(C(F)(F)F)c3)cc2)c1O is less than 300 nM?
Solution: not met

Problem: Could you please tell me whether GI50 recorded for CCOc1cccc(/C=N/NC(=O)c2ccccc2Nc2ccnc(C(F)(F)F)c2)c1O is less than 300 nM?
Solution: met

Problem: Could you please tell me whether GI50 recorded for O=C(N/N=C/c1ccccc1O)c1ccccc1Nc1ccnc(C(F)(F)F)c1 is less than 300 nM?
Solution: met

Problem: Could you please tell me whether GI50 recorded for O=C(N/N=C/c1ccc(O)cc1O)c1ccc(Nc2ccnc(C(F)(F)F)c2)cc1 is less than 300 nM?
Solution: not met

Problem: Could you please tell me whether GI50 recorded for CCN(CC)c1ccc(/C=N/NC(=O)Cc2ccc(Nc3ccnc(C(F)(F)F)c3)cc2)c(O)c1 is less than 300 nM?
Solution: not met

Problem: Could you please tell me whether GI50 recorded for CCN(CC)c1ccc(/C=N/NC(=O)c2ccc(Nc3ccnc(C(F)(F)F)c3)cc2)c(O)c1 is less than 300 nM?
Solution: met

Problem: Could you please tell me whether GI50 recorded for CCOc1cccc(/C=N/NC(=O)c2cccc(Nc3ccnc(C(F)(F)F)c3)c2)c1O is less than 300 nM?
Solution: not met

Problem: Could you please tell me whether GI50 recorded for O=C(N/N=C/c1cc(Cl)ccc1O)c1ccccc1Nc1ccnc(C(F)(F)F)c1 is less than 300 nM?
Solution: not met

Problem: Could you please tell me whether GI50 recorded for CCN(CC)c1ccc(/C=N/NC(=O)c2ccccc2Nc2ccnc(C(F)(F)F)c2)c(O)c1 is less than 300 nM?
Solution: met

====

Kindly state GI50 for each of the entries shown.
Test system: MCF7
assay: Cytotoxicity against human MCF7 cells after 48 hrs by sulforhodamine B assay
Assay type: functional
assay context: MCF7, 48 h
Entry rule: numbers only, all in µM.

Entry CCN(CC)c1ccc(/C=N/NC(=O)c2cccc(Nc3ccnc(C(F)(F)F)c3)c2)c(O)c1 , GI50 reported as 0.245

Entry CCN(CC)c1ccc(/C=N/NC(=O)c2ccccc2Nc2ccnc(C(F)(F)F)c2)c(O)c1 , GI50 reported as 0.288

Entry CCN(CC)c1ccc(/C=N/NC(=O)c2ccc(Nc3ccnc(C(F)(F)F)c3)cc2)c(O)c1 , GI50 reported as 0.295

Entry CCN(CC)c1ccc(/C=N/NC(=O)Cc2ccc(Nc3ccnc(C(F)(F)F)c3)cc2)c(O)c1 , GI50 reported as 0.407
